For each record, write down the corresponding Selectivity index.
Assay: Selectivity index for the inhibition of NMDA receptors was estimated by dividing Kb AMPA by Kb NMDA
One number for each entry.

Observe how each entry below is paired with its result.
{"molecular string": "O=[N+]([O-])c1c2c(cc3nc(O)c(O)nc13)CCC2", "Selectivity index": 20}
{"molecular string": "Cc1c(Cl)cc2nc(O)c(O)nc2c1[N+](=O)[O-]", "Selectivity index": 440}
{"molecular string": "Cc1cc2nc(O)c(O)nc2c([N+](=O)[O-])c1C", "Selectivity index": 79}

From here, focus on the item given below.
Look up Selectivity index: `Cc1c(C#N)cc2nc(O)c(O)nc2c1[N+](=O)[O-]`
20

---

Assay: Partition coefficient (logP)
Type: physicochemical
Settings: octanol/water
For each record, write down the corresponding logP.
Numbers only.

Observe how each entry below is paired with its result.
{"compound": "O=[N+]([O-])c1c(Br)c(Br)cc2nc(O)c(O)nc12", "observed result": 0.74}
{"compound": "CCc1cc2nc(O)c(O)nc2c([N+](=O)[O-])c1Br", "observed result": 1.04}
{"compound": "Cc1cc2nc(O)c(O)nc2c([N+](=O)[O-])c1C", "observed result": 0.58}
{"compound": "Cc1cc2nc(O)c(O)nc2c([N+](=O)[O-])c1Cl", "observed result": 0.44}
{"compound": "Cc1c(Cl)cc2[nH]c(=O)c(=O)[nH]c2c1[N+](=O)[O-]", "observed result": 0.49}
{"compound": "Cc1c(Br)cc2nc(O)c(O)nc2c1[N+](=O)[O-]", "observed result": 0.61}

Here are 2 compounds. What values of logP were reported for them?
1. Cc1c(F)cc2nc(O)c(O)nc2c1[N+](=O)[O-]
2. CCc1cc2nc(O)c(O)nc2c([N+](=O)[O-])c1Cl

1. 0.08
2. 0.92

Look up logP: O=c1[nH]c2cc(Cl)c(Cl)c([N+](=O)[O-])c2[nH]c1=O [LICOSTINEL]
0.21

---

Biological target: Glutamate receptor ionotropic, NMDA 1 (Rattus norvegicus, UniProt P35439)
Assay: Potency for the N-methyl-D-aspartate glutamate receptor 1 glycine site by displacement of [3H]5,7-dichlorokynurenic acid (DCKA) binding in rat brain cortical membranes.
quantity kind: IC50 (nM)
Give bare numbers, in nM.

Observe how each entry below is paired with its result.
{"compound": "COc1c(F)cc2[nH]c(=O)c(=O)[nH]c2c1[N+](=O)[O-]", "IC50 / nM": 1900}
{"compound": "Cc1cc2nc(O)c(O)nc2cc1Cl", "IC50 / nM": 780}
{"compound": "O=c1[nH]c2cc(Cl)c(Cl)c([N+](=O)[O-])c2[nH]c1=O [LICOSTINEL]", "IC50 / nM": 5.9}

Here are 7 compounds. What values of IC50 were reported for them?
1. Nc1c(F)cc2nc(O)c(O)nc2c1[N+](=O)[O-]
2. Cc1cc2nc(O)c(O)nc2c([N+](=O)[O-])c1Cl
3. CCc1cc2nc(O)c(O)nc2c([N+](=O)[O-])c1Cl
4. CCSc1c(Cl)cc2nc(O)c(O)nc2c1[N+](=O)[O-]
5. CCc1cc2[nH]c(=O)c(=O)[nH]c2c([N+](=O)[O-])c1CC
6. COc1c(Cl)cc2[nH]c(=O)c(=O)[nH]c2c1[N+](=O)[O-]
7. Cc1cc2nc(O)c(O)nc2c([N+](=O)[O-])c1C

1: 11000; 2: 45; 3: 29; 4: 640; 5: 160; 6: 150; 7: 29

---

Target: Glutamate receptor ionotropic, NMDA 1 (Rattus norvegicus)
Experiment: Potency for the N-methyl-D-aspartate glutamate receptor 1 glycine site by displacement of [3H]5,7-dichlorokynurenic acid (DCKA) binding in rat brain cortical membranes.
pIC50: −log10 of the molar value.
Each entry gets no if its pIC50 stays under 5, and yes if its pIC50 is 5 or above.

{"molecular string": "O=[N+]([O-])c1c(Br)c(Br)cc2nc(O)c(O)nc12", "label value": "yes"}
{"molecular string": "CCOc1c(F)cc2nc(O)c(O)nc2c1[N+](=O)[O-]", "label value": "yes"}
{"molecular string": "O=[N+]([O-])c1c(OCCCc2ccccc2)c(F)cc2nc(O)c(O)nc12", "label value": "yes"}

Is pIC50 for `Cc1c(Cl)cc2[nH]c(=O)c(=O)[nH]c2c1[N+](=O)[O-]` at or above 5?
yes

Is pIC50 for `CCCCOc1c(F)cc2nc(O)c(O)nc2c1[N+](=O)[O-]` at or above 5?
yes

Is pIC50 for `CCc1c(Cl)cc2nc(O)c(O)nc2c1[N+](=O)[O-]` at or above 5?
yes

Is pIC50 for `Cc1c(Cl)cc2nc(O)c(O)nc2c1N` at or above 5?
yes

Is pIC50 for `CCc1cc2[nH]c(=O)c(=O)[nH]c2cc1Cl` at or above 5?
yes

Is pIC50 for `COc1cc2[nH]c(=O)c(=O)[nH]c2c(OC(C)=O)c1OC` at or above 5?
no

Is pIC50 for `Oc1nc2cc3c(cc2nc1O)CCC3` at or above 5?
no

Is pIC50 for `Cc1c(Br)cc2nc(O)c(O)nc2c1[N+](=O)[O-]` at or above 5?
yes

Is pIC50 for `Cc1c(C#N)cc2[nH]c(=O)c(=O)[nH]c2c1[N+](=O)[O-]` at or above 5?
yes

Is pIC50 for `COc1c(Br)cc2[nH]c(=O)c(=O)[nH]c2c1[N+](=O)[O-]` at or above 5?
yes

Is pIC50 for `CCc1cc2nc(O)c(O)nc2c([N+](=O)[O-])c1Br` at or above 5?
yes

Is pIC50 for `O=c1[nH]c2cc3c(c([N+](=O)[O-])c2[nH]c1=O)CCC3` at or above 5?
yes

Is pIC50 for `COc1cc2[nH]c(=O)c(=O)[nH]c2cc1OC` at or above 5?
no

Is pIC50 for `COc1cc2[nH]c(=O)c(=O)[nH]c2c(O)c1OC` at or above 5?
no

Is pIC50 for `Cc1cc2[nH]c(=O)c(=O)[nH]c2cc1C` at or above 5?
yes

Is pIC50 for `CCc1cc2[nH]c(=O)c(=O)[nH]c2cc1CC` at or above 5?
yes

Recorded values, source ChEMBL document CHEMBL1129955.
